- Experimental Protocol: in vitro
- Run Conditions: African green monkey, CC50 Vero E6, absence of virus
Observation Type: CC50

> print(dat)
                                   compound  measurement
1  CC1(C)Cc2c(-c3ccccc3)c(-c3ccc(Cl)cc3)c(CC(=O)O)n2C1     > 100 µM
2  Nc1ncnc2c1ncn2[C@@H]1O[C@H](CO)[C@@H](O)[C@@H]1O     > 100 µM

Consider the record given below.
# compound CC1=C(CC(=O)O)c2cc(F)ccc2/C1=C\c1ccc([S+](C)[O-])cc1 (stereo not drawn) ; its CC50 = > 100 µM

---

Listing of entries alongside the reported CC50.
- Experimental Protocol: in vitro
- Run Conditions: African green monkey, CC50 Vero E6
Structures can show the parent of a compound that is named as a salt.

Below: 2 compounds and their reported CC50.
> print(dat)
                                   compound  measurement
1  CN(C)C(=O)COC(=O)Cc1ccc(OC(=O)c2ccc(NC(=N)N)cc2)cc1 [Camostat, Camostat mesylate]     > 100 µM
2  O=C1CN(/N=C/c2ccc([N+](=O)[O-])o2)C(=O)N1     > 100 µM

Consider the record given below.
# compound O=C1Nc2ccccc2/C1=C1/Nc2ccccc2C1=O ; its CC50 = > 100 µM

---

- System: VeroE6 cells
- Run Conditions: read-out: CC50 Vero E6; absence of virus
Listing of entries alongside the reported CC50.

Below: 4 compounds and their reported CC50.
> print(dat)
                                   compound  target.or.system  measurement
1  NC(=O)[C@@H]1CCCN1C(=O)[C@H](Cc1c[nH]cn1)NC(=O)[C@@H]1CCC(=O)N1      VeroE6 cells     > 100 µM
2  CCCCCCCCCC(=O)OCC(O)CO (stereo not drawn)      VeroE6 cells     > 100 µM
3  CCCCCCCCCCCCOS(=O)(=O)[O-].[Na+] [SLS, Sodium lauryl sulfate]      VeroE6 cells        87 µM
4                         CCCCCCCCCCCC(=O)O      VeroE6 cells     > 100 µM

Recorded CC50 for COc1ccc2cc1Oc1ccc(cc1)C[C@H]1c3c(cc4c(c3Oc3cc5c(cc3OC)CCN(C)[C@@H]5C2)OCO4)CCN1C on VeroE6 cells was 22.4 µM

Recorded CC50 for CCCCCCCCCCCC(=O)OCC(O)CO (stereo not drawn) on VeroE6 cells was > 100 µM

---

Listing of entries alongside the reported CC50.
- Experimental Protocol: in vitro
- Run Conditions: African green monkey, CC50 Vero E6, absence of virus

Below: 10 molecules and their reported CC50.
Molecule	CC50
N#C[C@@H]1CCCN1C(=O)CNC12CC3CC(CC(O)(C3)C1)C2	> 100 µM
CC(C)[C@H](N)C(=O)OCCOCn1cnc2c(=O)[nH]c(N)nc21	> 100 µM
C[C@@H]1C[C@H]2[C@@H]3CCC4=CC(=O)C=C[C@]4(C)[C@@]3(F)[C@@H](O)C[C@]2(C)[C@@]1(O)C(=O)CO	> 100 µM
Cc1cccn2c(=O)c(-c3nnn[nH]3)cnc12	> 100 µM
Cc1ccc(-c2cc(C(F)(F)F)nn2-c2ccc(S(N)(=O)=O)cc2)cc1	13 µM
O=c1c(O)c(-c2cc(O)c(O)c(O)c2)oc2cc(O)cc(O)c12	> 100 µM
CC(C)Cc1ccc(C(C)C(=O)O)cc1 (stereo not shown)	> 100 µM
CN(C)C(=N)N=C(N)N	> 100 µM
CCN(CCO)CCCC(C)Nc1ccnc2cc(Cl)ccc12 (stereo not shown) [Hydroxychloroquine]	> 100 µM
CC1(C)[C@@H](O[C@H]2O[C@H](C(=O)O)[C@@H](O)[C@H](O)[C@H]2O[C@@H]2O[C@H](C(=O)O)[C@@H](O)[C@H](O)[C@H]2O)CC[C@]2(C)[C@H]3C(=O)C=C4[C@@H]5C[C@@](C)(C(=O)O)CC[C@]5(C)CC[C@@]4(C)[C@]3(C)CC[C@@H]12	> 100 µM

# molecule O=c1c(O)c(-c2ccc(O)c(O)c2)oc2cc(O)cc(O)c12 ; its CC50 = > 100 µM

# molecule Cc1cc(O)c2c(=O)c3c(O)cc(O)c4c5c(O)cc(O)c6c(=O)c7c(O)cc(C)c8c1c2c(c34)c(c78)c65 ; its CC50 = 4.8 µM

# molecule COc1ccc2cc1Oc1ccc(cc1)C[C@H]1c3c(cc4c(c3Oc3cc5c(cc3OC)CCN(C)[C@@H]5C2)OCO4)CCN1C ; its CC50 = 22.3 µM

# molecule O=c1cc(-c2ccc(O)c(O)c2)oc2cc(O)cc(O)c12 ; its CC50 = > 100 µM

# molecule C[C@]1(Cn2ccnn2)[C@H](C(=O)O)N2C(=O)C[C@H]2S1(=O)=O ; its CC50 = > 100 µM

# molecule Cc1ccnc(NS(=O)(=O)c2ccc(N)cc2)n1 ; its CC50 = > 100 µM

---

- Test system: HLT cells
- Run Conditions: read-out: CC50 HLT; absence of virus
Listing of entries alongside the reported CC50.

> print(dat)
                                   molecule  measurement
1  NC(=O)[C@@H]1CCCN1C(=O)[C@H](Cc1c[nH]cn1)NC(=O)[C@@H]1CCC(=O)N1     > 100 µM
2  COc1ccc2cc1Oc1ccc(cc1)C[C@H]1c3c(cc4c(c3Oc3cc5c(cc3OC)CCN(C)[C@@H]5C2)OCO4)CCN1C      16.1 µM
3                         CCCCCCCCCCCC(=O)O     > 100 µM

# molecule CCCCCCCCCCCCOS(=O)(=O)[O-].[Na+] [SLS, Sodium lauryl sulfate] ; its CC50 = ~83.2 µM

# molecule CCCCCCCCCC(=O)OCC(O)CO (stereo not drawn) ; its CC50 = > 100 µM

# molecule CCCCCCCCCCCC(=O)OCC(O)CO (stereo not drawn) ; its CC50 = > 100 µM

---

- Experimental Protocol: in vitro
- Run Conditions: human, CC50 HLT
Where a name gives a salt, the structure may show the parent alone.
Observation Type: CC50

> print(dat)
                                   molecule  observation.type  measurement
1  O=C1CN(/N=C/c2ccc([N+](=O)[O-])o2)C(=O)N1              CC50     > 100 µM
2  CN(C)C(=O)COC(=O)Cc1ccc(OC(=O)c2ccc(NC(=N)N)cc2)cc1 [Camostat, Camostat mesylate]              CC50     > 100 µM

Consider the record given below.
# molecule O=C1Nc2ccccc2/C1=C1/Nc2ccccc2C1=O ; its CC50 = > 100 µM
